- System: Escherichia coli
- experimental details: Binding affinity to His6-tagged Escherichia coli FabF C163Q mutant expressed in Escherichia coli BL21 (DE3) assessed as change in enthalpy measured after 200 sec by isothermal titration calorimetry
Catalogue of deltaH values
Output spec: scalar in kcal/mol, unitless text.

C=C1C[C@]23C=C(SCCO)C(=O)[C@@](C)(CCC(=O)Nc4c(O)ccc(C(=O)O)c4O)[C@@H]2CC1CC3 (single isomer, unassigned)
-1.09
C=C1C[C@@]23C=CC(=O)[C@@](C)(CCC(=O)Nc4c(O)ccc(C(=O)O)c4O)[C@@H]2C[C@@H]1CC3
-2.84
C=C1C[C@@]23CCC1C[C@H]2[C@](C)(CCC(=O)Nc1c(O)ccc(C(=O)O)c1O)C(=O)[C@@H]1O[C@@H]13 (single isomer, unassigned)
-1.66

Okay, now this compound:
Looking up C[C@]12C[C@@]34C=CC(=O)[C@@](C)(CCC(=O)Nc5c(O)ccc(C(=O)O)c5O)[C@@H]3[C@H](C[C@@H]1C4)O2 , I see its deltaH listed as -2.06

All figures here come from ChEMBL document CHEMBL4765495.
